Here is a set of compounds with reported IC50 for Epidermal growth factor receptor (Homo sapiens, UniProt P00533), compiled from the literature.
// return numeric value only (unit: nM, not printed)

## Task Enter IC50 (test system Epidermal growth factor receptor (Homo sapiens, UniProt P00533)) for `CCOc1nn([C@@H](C)CO)c2c1/C=C/c1n[nH]c3ccc(cc13)-c1cnn(C)c1O[C@@H](C)CN(C)C2`
## Result 1.74

## Task # return IC50 of `Cc1nn(C)c2c1/C=C/c1n[nH]c3ccc(cc13)-c1cnn(C)c1CN(C)[C@@H](C)CO2` (system: Epidermal growth factor receptor (Homo sapiens, UniProt P00533))
## Result 107

## Task State IC50 (Epidermal growth factor receptor (Homo sapiens, UniProt P00533)) of `CC(C)c1ccc(N2CC(CS(C)(=O)=O)C2)c2cnc(Nc3ccnc(-n4cc(-c5cccc(O)c5C=O)cn4)n3)cc12` .
## Result 197

## Task Please report the measured IC50 for `Fc1ccc(Nc2ncnc3nc(Nc4ccc(CN5CCSCC5)cc4)sc23)cc1Cl` tested on Epidermal growth factor receptor (Homo sapiens, UniProt P00533).
## Result 49.3

## Task Report IC50 from Epidermal growth factor receptor (Homo sapiens, UniProt P00533) testing of `COCCN1CCN(Cc2ccc3[nH]/c(=N\C(=O)c4ccnc(Oc5cccc(O)c5C=O)c4)n(CC(C)(C)O)c3c2)CC1`
## Result 14.6
